Reference source: BigSolDB 2.1

- protocol conditions: in NMP, 308.15 K
experimental readout: solubility (mole fraction)
Give the value as a plain number.

Recorded solubility (mole fraction) (compound `CO/N=C(\C(=O)N[C@@H]1C(=O)N2C(C(=O)[O-])=C(COC(C)=O)CS[C@H]12)c1csc(N)n1.[Na+]` ): 0.103

----------
- protocol conditions: in DMSO, 295.15 K
experimental readout: solubility (mole fraction)
Give the value as a plain number.

Recorded solubility (mole fraction) (compound `CO/N=C(\C(=O)N[C@@H]1C(=O)N2C(C(=O)[O-])=C(COC(C)=O)CS[C@H]12)c1csc(N)n1.[Na+]` ): 0.0744

----------
- protocol conditions: in water, 283.15 K
experimental readout: solubility (mole fraction)
Give the value as a plain number.

Recorded solubility (mole fraction) (compound `CO/N=C(\C(=O)N[C@@H]1C(=O)N2C(C(=O)[O-])=C(COC(C)=O)CS[C@H]12)c1csc(N)n1.[Na+]` ): 0.0183
